- Test system: HS 578T breast
- ASSAY_NOTES: NCI tumour cell line growth inhibition, 48 h
Answer 0.0 if TGI is under 20 µM, and 1.0 if it is 20 µM or more.

Ask: Assess whether reported TGI for Cc1cn(CC2=NCC(C)N2)c(=O)[nH]c1=O (centres undefined) sits at 20 µM or higher.
Reply: 1.0

Ask: Form field: TGI at least 20 µM? Entry: "CCN(CC)c1ccc(C(=O)c2ccc(N(CC)CC)cc2)cc1"
Reply: 0.0

Ask: Is it the case that COc1ccc(/C=C2\CCC(C)C3=C2N=c2s/c(=C/c4cccc(Br)c4)c(=O)n2C3c2ccc(OC)c(OC)c2)cc1OC (centres undefined) has TGI reaching or exceeding 20 µM?
Reply: 1.0

Ask: Does TGI meet or surpass 20 µM for CC(C)(C)OC(=O)N1C(c2cccnc2)=CC[C@H]2C3CC=C(c4cccnc4)[C@@]3(C)CC[C@@H]21 (some centres undefined) ?
Reply: 1.0

Ask: Could you tell me if the measured TGI of "Cc1cc(C)c(-n2c(-c3ccc(Br)cc3)cs/c2=N\N=C2C=C(C(C)(C)C)C(=O)C(C(C)(C)C)=C2)c(C)c1" reaches 20 µM or more?
Reply: 1.0

Ask: Could you please find out whether "COc1ccc(-c2ccc(-c3ccc(C(=N)N)o3)o2)cc1" has TGI that meets 20 µM or exceeds it?
Reply: 0.0

Ask: Determine whether measured TGI meets or exceeds 20 µM for N[C@H]1CCCC[C@@H]1N1C(=O)c2ccccc2C1(O)c1ccc(Cl)cc1 (some centres undefined)
Reply: 1.0

Ask: Reported TGI at or above 20 µM? COC(=O)C1(C)C=CC(=O)C2(C)C1C(O)C1OC3CC(c4ccoc4)C(C)=C3C1(C)C2CC(=O)O (centres undefined)
Reply: 1.0

----------
- System: UO-31 renal
- ASSAY_NOTES: NCI tumour cell line growth inhibition, 48 h
Exercise: for every item that follows, state its recorded TGI.

Record "COC(=O)Nc1nc2ccc(Br)cc2[nH]1" / UO-31 renal, TGI recorded as > 100 µM

Tested on UO-31 renal: "COc1ccccc1C(=O)c1c(NCc2ccccc2)c(=O)c1=O" . Observed TGI: > 100 µM

Result for "COc1cc(Cc2nccc3cc(OC)c(OC)cc23)c(N=NN(C)C)cc1OC" , tested on UO-31 renal, TGI: 44.8 µM

Form field TGI for item "C/C(=N\NC(=S)NCCCNC(=S)N/N=C(\C)c1ccccn1)c1ccccn1" on UO-31 renal: > 54.1 µM

----------
- System: IGROV1 ovarian
- ASSAY_NOTES: NCI tumour cell line growth inhibition, 48 h
Would you kindly list TGI for each of these compounds?
Only the number, expressed in µM, is required.

Measured TGI, "CC1=C(C(=O)Nc2ccccc2)C2(CCCCC2)C(C#N)=C(SCC(=O)Nc2ccc(Br)cc2)N1" : 14.6

"OCCNCNc1nc(NCNCCO)nc(N(CNCCO)CNCCO)n1" has a reported TGI of 49.4

TGI in this record for C=C1CCC([N+](=O)[O-])[C@](C)(N=O)CC[C@@H]2C1CC2(C)C (some centres not stated) : 59.1

----------
- Test system: RXF 393 renal
- ASSAY_NOTES: NCI tumour cell line growth inhibition, 48 h
MEASUREMENT_KIND: GI50

So, C=C1CC2(OC1=O)C(=O)Nc1ccccc12 (stereo unspecified) ? Its GI50 was 1.45 µM

// field: GI50; key: "COc1cc(-c2nc(SCCC(C)C)nc(Nc3ccc(S(N)(=O)=O)cc3)c2C#N)cc(OC)c1OC" ; value = 1.83 µM

Reported GI50 ( "CCCCCCCc1cc2c3c(nc4ccccc42)C(=O)c2cccnc2-c3n1" ) = 5.67 µM

GI50 for "O=C1C(=O)c2cccnc2-c2ncccc21" is 0.0768 µM

molecule "Cc1ncc(C(=O)Nc2ccc(CN3CCN(C)CC3)c(C(F)(F)F)c2)cc1C#Cc1cnc(N)cc1C#N" , GI50 observed: 0.227 µM

Memo: NCCCNCCCCNC(=O)C(O)NC(=O)CCCCCCN=C(N)N (stereo unspecified) , reported GI50: 3480 µM
